meta.source: the supplement of paper PMC10065799

Listed next: entries and their corresponding SH2 binding enrichment.
system: SHP2-C SH2;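 further: peptide library displayed on the E. coli surface as eCPX fusions, selected cells deep-sequenced, score is each peptide's frequency after selection divided by its frequency in the input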
assay.procedure: SH2 binding enrichment of the phosphorylated peptide, bacterial display (enrichment ratio); higher = better substrate or ligand; peptides without Tyr show the background

entry.sequence | SH2 binding enrichment
CTTIHYNFMCI [TP53_Y234_N239I_YF] | 1.57
ESSKAYERDLS [TTC37_Y1074_A1077D] | 0.715
PEIIAYQPYGK [PRKCG_Y529] | 0.676
EFNINYNNELP [THG1L_Y228] | 0.839
LTEEKYELKEG [TREM1_Y29] | 0.639
SLQSEYVHFGG [CDC14A_Y591_YF] | 0.993
HIAKVYRRDNP [HARS1_Y156] | 0.722
SKNSKYNAEST [PSEN1_Y315] | 0.595
GVYSRYFTTYD [CLCA1_Y661] | 1.27
NHQFDYTFHWT [CSNK1A1_Y294_D297H_YF] | 1.05
KDGIGYISAAE [CALM2_Y100_N98I] | 0.686
RLDPVYFVAPA [LAMC2_Y250] | 0.915
NGPDVYVLPLT [AATK_Y93] | 0.743
GLSDLYVKIHL [SYT2_Y309_P308L] | 0.599
KLQKYYRKNPD [EHHADH_Y683_Q685K] | 0.604
TVNIRYLLFPS [SERAC1_Y548_S543T] | 1.46
LADKPYTFEDF [FXN_Y118_YF] | 0.954
QNTGVYFDLFG [PTPN11_Y62_D61V_YF] | 0.688
FRKNIYNVKST [SYNE2_Y575_YF] | 0.927
DGFIDYAEFAK [MCFD2_Y138_YF] | 0.753
VDGFVYKLHPS [GCK_Y413_S411F] | 0.55
TRSYDYMEGGD [FGF7_Y58] | 0.538
AQQPIYIRVEG [NLRP7_Y318_V319I] | 0.614
ENELTYFCFKK [CD59_Y86_C89Y_YF] | 0.6
LTVVIYVLIGR [EPHA3_Y561] | 1.36
ANARMYGVLPW [PLP1_Y207_D203N] | 0.749
TMETKYDNISR [SETDB2_Y477_V473M] | 0.876
REVPVYTYSEP [FAM120B_Y368_D370Y] | 0.614
TLCLCYKETEE [ATP8B1_Y658_I661T] | 0.672
KKARAYRPGIE [FLNA_Y287_G288R] | 0.606
NIRKKYYRAIL [CHD7_Y1217_Q1214R] | 0.426
ASELGYQFQAI [UROD_Y133_V134Q] | 0.652
QNTGNYFDLFG [PTPN11_Y62_D61N_YF] | 0.867
REDVFYTSKLW [AKR1C2_Y81_I79V] | 0.729
ADPQEYIPLPA [JAKtide_2014] | 0.809
NNFGNYNNQSS [HNRNPA1_Y318_D314N] | 0.607
RPFRPYIIRGM [LRP5_Y1531_YF] | 0.625
LIFTNYEVGKD [GSTP1_Y112_A114V_YF] | 0.784
KRISCYEARFQ [PFKFB3_Y194_S197R_YF] | 0.941
FASALYRQRRS [FGF11_Y162_YF] | 0.576
RIRRRYCQVLN [IQCF1_Y144] | 0.438
FFSSEYHFVGG [CTSC_Y345_YF] | 1.68
RNESFYDTFST [EFCAB3_Y372] | 0.913
PLYRKYWPNHI [GREB1L_Y1560] | 1.24
NFDRIYIFHLR [MYOF_Y1137_V1136I_YF] | 2.07
DLDFTYIFPNI [PTEN_Y27_L25F_YF] | 0.435
KQRKEYMHRWQ [IQGAP2_Y710_R714W] | 2.21
VIKDKYPKAHY [APTX_Y209_R213H] | 1.11
LKYAIYFEVRE [LAMA2_Y1258_A1261V] | 0.573
QDRDLYPCPGT [RLF_Y671] | 0.717
EQLQSYQVEII [KRT33A_Y268_A270V] | 0.629
ILKPDYQPLAI [HYDIN_Y1072] | 0.847
TEFSQYMRRKN [MAX_Y73_I71S_YF] | 0.279
RLKAKYPAATG [GLI3_Y933_A934P] | 1.25
FRSSLYLLMET [MYO5C_Y633] | 1.16
DEEEEYEYMNR [ERBB3_Y1197_D1194E] | 0.645
KNSFKYFMSDD [ATRX_Y203_C200S_YF] | 0.587
